A collection of compounds and their measured IC50
TEST_TARGET: Progesterone receptor (Homo sapiens)
Sequence (P06401 whole entry): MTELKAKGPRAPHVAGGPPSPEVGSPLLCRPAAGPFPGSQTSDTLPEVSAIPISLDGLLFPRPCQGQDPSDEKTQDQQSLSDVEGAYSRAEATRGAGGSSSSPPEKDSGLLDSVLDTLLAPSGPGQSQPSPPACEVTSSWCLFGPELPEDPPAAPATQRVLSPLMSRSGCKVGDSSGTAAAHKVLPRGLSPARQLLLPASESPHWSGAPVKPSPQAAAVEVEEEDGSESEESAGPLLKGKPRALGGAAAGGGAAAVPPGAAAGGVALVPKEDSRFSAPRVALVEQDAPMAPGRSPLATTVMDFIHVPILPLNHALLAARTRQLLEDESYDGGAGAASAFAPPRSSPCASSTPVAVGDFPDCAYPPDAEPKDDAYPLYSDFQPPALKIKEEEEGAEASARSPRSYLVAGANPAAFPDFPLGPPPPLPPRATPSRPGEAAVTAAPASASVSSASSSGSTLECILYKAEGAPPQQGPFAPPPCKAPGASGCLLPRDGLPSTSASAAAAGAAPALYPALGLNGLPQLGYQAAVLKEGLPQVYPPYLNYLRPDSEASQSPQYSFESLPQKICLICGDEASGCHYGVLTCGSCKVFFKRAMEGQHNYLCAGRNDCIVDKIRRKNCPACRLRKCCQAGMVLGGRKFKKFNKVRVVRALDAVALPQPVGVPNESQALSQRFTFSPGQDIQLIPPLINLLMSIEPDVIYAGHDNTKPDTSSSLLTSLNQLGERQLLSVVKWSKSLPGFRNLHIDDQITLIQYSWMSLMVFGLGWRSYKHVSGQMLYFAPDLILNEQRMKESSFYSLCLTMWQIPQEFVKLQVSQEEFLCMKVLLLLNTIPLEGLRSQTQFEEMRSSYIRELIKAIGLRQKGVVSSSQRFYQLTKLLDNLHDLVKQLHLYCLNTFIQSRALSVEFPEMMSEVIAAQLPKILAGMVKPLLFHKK
ASSAY_EXPLANATION: Antagonist activity at progesterone receptor in human T47D cells assessed as inhibition of progesterone-induced alkaline phosphatase activity
Please respond with the number in nM and leave the unit unwritten.

Reference set, count: 5
>>> print(df.to_string())
                                   compound  experimental_endpoint  measured_value
0  CCC(O)c1ccc(-c2ccc(C#N)n2C)cc1 (configuration not stated)                   IC50              27
1  Cn1c(C#N)ccc1-c1ccc2c(c1)CCCC2(O)c1ccccc1 (configuration not stated)                   IC50              35
2  CC#CC1(O)CCCc2cc(-c3ccc(C#N)n3C)ccc21 (configuration not stated)                   IC50              10
3  Cn1c(C#N)ccc1-c1ccc(/C(=N\O)C(C)(C)C)cc1                   IC50               3
4        CC/C(=N/O)c1ccc(-c2ccc(C#N)n2C)cc1                   IC50              17

Look up IC50: Cn1c(C#N)ccc1-c1ccc2c(c1)CCCC2O (configuration not stated) 7

// returns reported IC50 for input Cn1c(C#N)ccc1-c1ccc(C(O)c2cccs2)cc1 (configuration not stated) 47

# get_value(readout='IC50', item= Cn1c(C#N)ccc1-c1ccc2c(c1)CCCC2(C)O (configuration not stated) ) 6

Fill in: IC50 of `C/C(=N/O)c1ccc(-c2ccc(C#N)n2C)cc1` is ___ 108

I have this compound here, `Cn1c(C#N)ccc1-c1ccc2c(c1)CCCC2=O` , and I need its recorded IC50. 28

Which IC50 value belongs to `Cn1c(C#N)ccc1-c1ccc2c(c1)CCC/C2=N/O` ? 33

Value lookup for IC50; key = `Cn1c(C#N)ccc1-c1ccc(C(=O)C(C)(C)C)cc1` 3
